Listing of entries alongside the reported residual activity.
# experimental-system: MAPK10 (human) (UniProt P53779)
# Sequence (P53779 whole entry, looked up): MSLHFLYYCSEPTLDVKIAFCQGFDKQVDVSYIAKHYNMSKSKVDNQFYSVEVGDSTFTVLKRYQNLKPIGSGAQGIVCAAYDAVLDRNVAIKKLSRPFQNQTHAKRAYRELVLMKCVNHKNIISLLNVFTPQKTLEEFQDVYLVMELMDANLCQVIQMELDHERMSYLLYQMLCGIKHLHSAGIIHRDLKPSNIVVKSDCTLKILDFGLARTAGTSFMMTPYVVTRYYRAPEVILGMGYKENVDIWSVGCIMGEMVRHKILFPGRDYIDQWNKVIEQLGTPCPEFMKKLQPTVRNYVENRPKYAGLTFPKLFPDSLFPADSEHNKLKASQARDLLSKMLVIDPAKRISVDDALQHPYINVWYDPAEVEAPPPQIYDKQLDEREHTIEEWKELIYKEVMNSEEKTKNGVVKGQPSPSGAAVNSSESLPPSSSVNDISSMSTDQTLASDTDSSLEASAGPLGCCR
# experiment-notes: radiometric filter-binding kinase assay, Kinase HotSpot
# condition-set: compound 0.5 µM; ATP 10 µM
Number only, in %; omit the unit.

Example entries and their recorded answers appear below.
{"smiles-notation": "O=S(=O)(NCCNC/C=C/c1ccc(Br)cc1)c1cccc2cnccc12", "experimental-system": "MAPK10 (human) (UniProt P53779)", "value-type": "residual activity", "meas-value": 92.6}
{"smiles-notation": "O=c1cc(N2CCOCC2)oc2c(-c3ccccc3)cccc12", "experimental-system": "MAPK10 (human) (UniProt P53779)", "value-type": "residual activity", "meas-value": 87.1}
{"smiles-notation": "COc1cc2c(cc1OC)-c1[nH]nc(Nc3cccc(F)c3)c1C2", "experimental-system": "MAPK10 (human) (UniProt P53779)", "value-type": "residual activity", "meas-value": 102}

Problem: Need residual activity, item "O=c1c2ccccc2[nH]c(=S)n1CCN1CCC(=C(c2ccc(F)cc2)c2ccc(F)cc2)CC1"
Result: 76.2

Problem: If you can, please state the reported residual activity value of "FC(F)(F)c1ccc(/C=C/c2nc(COc3ccc(CCCCn4ccnn4)cc3)co2)cc1" .
Result: 94.6

Problem: If you can, please state the reported residual activity value of "Nc1ncnc2c1cnn2-c1ccccc1" .
Result: 100

Problem: Form field: reported residual activity of "CCOc1cc2ncnc(Nc3cccc(Br)c3)c2cc1OCC"
Result: 101

Problem: # get_value(readout='residual activity', item= "CCc1nc(-c2ccc(OC)cc2)[nH]c1-c1ccncc1" )
Result: 100

Problem: What measured residual activity goes with "O=C1NC(=O)c2cc(Nc3ccc(F)cc3)c(Nc3ccc(F)cc3)cc21" ?
Result: 97.3

Problem: I would be grateful if you could share the reported residual activity for "COc1cc2c(Nc3ccc(Br)cc3F)ncnc2cc1OCC1CCN(C)CC1" .
Result: 96.9
